The values you see were collected from patent US8492408B2.

tested on: benzodiazepine modulatory unit of the GABAA receptor complex (3H-flunitrazepam binding, cerebral cortex membranes)
assay explanation: In vitro inhibition of 3H-flunitrazepam (3H-FNM) binding
test parameters: inhibition of specific 3H-FNM (1 nM) binding, cerebral cortex membranes from male Wistar rats, 40 min at 2° C.
assay endpoint: pIC50
One number for each entry, as −log10 of the molar value.

Past entries and their recorded results:
CC(C)(O)c1ccc2c(c1)ncn2-c1ccnc(-c2cccnc2Cl)c1 :: 7.42
CC(C)(O)c1ccc2c(c1)ncn2-c1ccnc(-c2ccncc2C#N)c1 :: 7.59
COc1ncccc1-c1cc(-n2cnc3cc(C(C)(C)O)ccc32)ccn1 :: 8.92

Consider the additional compound presented here.
Req: Quick one: pIC50 for CC(C)(O)c1ccc2c(c1)ncn2-c1ccnc(-c2ccncc2F)c1 ?
Resp: 8.12
